// values below are reported IC50
Tested on: MDA-MB-231
method_notes: Antiproliferative activity against human MDA-MB-231 cells after 72 hrs by colorimetric tetrazolium assay
Format: functional, cell-based
run_conditions: MDA-MB-231, 72 h
reported_property: IC50 (µM)

- CCCCCCCCn1cc(CC(=O)N(CC)CC)c2cc(-c3cccc(C)c3)ccc21: 27
- CCCCCCCCn1cc(CN2CCCCC2)c2cc(-c3cccc(C)c3)ccc21: 4.9
- CCCCCCCCn1cc(CN(C)C)c2cc(-c3cccc(C)c3)ccc21: 6.8
- CCCCCCCCn1cc(CCC(N)=O)c2cc(-c3cccc(C)c3)ccc21: 20.7
- CCCCCCCCn1cc(CC(N)=O)c2cc(-c3ccccc3)ccc21: 26

* * *

system: Protein-S-isoprenylcysteine O-methyltransferase (Homo sapiens)
Sequence (O60725 whole entry): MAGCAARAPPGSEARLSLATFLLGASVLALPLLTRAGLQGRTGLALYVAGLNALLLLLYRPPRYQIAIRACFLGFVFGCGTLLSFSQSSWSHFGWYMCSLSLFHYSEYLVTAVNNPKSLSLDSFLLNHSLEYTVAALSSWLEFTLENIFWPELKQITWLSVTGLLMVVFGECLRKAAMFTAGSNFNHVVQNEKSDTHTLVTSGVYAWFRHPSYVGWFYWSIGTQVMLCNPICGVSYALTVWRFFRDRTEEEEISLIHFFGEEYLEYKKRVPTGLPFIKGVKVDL
method_notes: Inhibition of recombinant ICMT expressed in Sf9 cells using [3H] AdoMet after 20 mins by scintillation counting
pIC50: −log10 of the molar value.
// values below are reported pIC50
reported_property: pIC50

• CCCCCCCCn1cc(CN2CCCC2)c2cc(-c3cccc(C)c3)ccc21 = 6.30
• CCCCCCCCn1cc(CN(C)C)c2cc(-c3cccc(C)c3)ccc21 = 5.89
• CCCCCCCCn1cc(CN(CC)CC)c2cc(-c3cccc(C)c3)ccc21 = 6.15
• CCCCCCCCn1cc(CN(CC)CC)c2cc(-c3ccccc3C)ccc21 = 6.22
• CCCCCCCCn1cc(CN(CCC)CCC)c2cc(-c3cccc(C)c3)ccc21 = 6.10
• CC(C)=CCn1cc(CN2CCCCC2)c2cc(-c3cccc(C)c3)ccc21 = 5.68
• CCCCCCCCn1cc(CC(=O)N(CC)CC)c2cc(-c3cccc(OC)c3)ccc21 = 6.10
• CCCCCCCCn1cc(CN2CCN(C)CC2)c2cc(-c3cccc(C)c3)ccc21 = 6.05
• CCCCCCCCn1cc(CC(=O)N(CC)CC)c2cc(-c3cccc(OCC)c3)ccc21 = 6.00
• Cc1cccc(-c2ccc3[nH]cc(CC(N)=O)c3c2)c1 = 4.48
• CCCCCCCCn1cc(CC(=O)N(CC)CC)c2cc(-c3cccc(C)c3)ccc21 = 5.85
• CCCCCCCCn1cc(CC(N)=O)c2ccccc21 = 5.19
• Cc1cccc(-c2ccc3c(c2)c(CC(N)=O)cn3Cc2cccc(C(F)(F)F)c2)c1 = 5.60
• CC(C)=CCC/C(C)=C/Cn1cc(CC(N)=O)c2cc(-c3cccc(C)c3)ccc21 = 6.00
• CCCCCCCCn1cc(CC(N)=O)c2cc(-c3cccc(OCC)c3)ccc21 = 5.89

* * *

// values below are reported pIC50
Test system: MDA-MB-231
method_notes: Antiproliferative activity against human MDA-MB-231 cells after 72 hrs by colorimetric tetrazolium assay
Assay type: functional, cell-based
run_conditions: MDA-MB-231, 72 h
pIC50: −log10 of the molar value.
reported_property: pIC50

* CCCCCCCCn1cc(CN(C(C)C)C(C)C)c2cc(-c3cccc(C)c3)ccc21 | 4.70
* CCCCCCCCn1cc(CC(=O)N2CCCCC2)c2cc(-c3cccc(C)c3)ccc21 | 4.54
* CCCCCCCCn1cc(CN(CC)CC)c2cc(F)ccc21 | 5.14
* CCCCCCCCn1cc(CC(N)=O)c2cc(-c3ccccc3C)ccc21 | 4.67
* CC(C)=CCn1cc(CN2CCOCC2)c2cc(-c3cccc(C)c3)ccc21 | 4.47
